The entries below come with measured TGI values attached.
tested on: SF-295 CNS; assay: NCI tumour cell line growth inhibition, 48 h

CC1=NN(c2ccccc2)C(=O)/C1=C\c1c(C)[nH]n(-c2ccccc2)c1=O | > 100 µM
CCC1OC2(C)CC(C#N)(C#N)C1(C#N)C(=N)O2 (stereo not given) | > 100 µM
C[C@@H]1C[C@@H]2OC(=O)[C@]3(C)[C@H]2[C@@H](OC3(C)O)[C@]2(C)C(=O)C=C[C@@H]12 (stereo not given in full) | > 100 µM
NCCOCCOCC(=O)O | > 100 µM
O=C1OC2(CCCCC2)C(Oc2ccc(Cl)cc2)=C1F | > 100 µM

Okay, now this compound:
Exam item: Which TGI value is on record for C/C(CC(O)(C(F)(F)F)C(F)(F)F)=N\O ?
Marked response: > 10 µM
